Tgt: SMAD3 MH1 (Homo sapiens, UniProt P84022 1-132)
Sequence (P84022 1-132): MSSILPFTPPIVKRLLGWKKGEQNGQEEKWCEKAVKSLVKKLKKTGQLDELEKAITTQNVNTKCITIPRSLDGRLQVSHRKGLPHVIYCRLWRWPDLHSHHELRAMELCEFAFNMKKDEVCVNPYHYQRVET
Procedure Text: EMSA; Hill 1.6; EMSA: 25 mM Tris-HCl (pH not given for binding buffer; RNA stock pH 7.5), 115 mM KCl, 1 mM MgCl2, 1 mM DTT, 20 ng/ul poly I:C, 0.1 mg/ml BSA, 10% glycerol, on ice 2 h; 0.5x TBE gel at 4 C
Experimental Context: protein: recombinant; tags: 6xHis-SUMO cleaved; label: 5' 32P; hairpin
Experimental Readout: Kd (nM)
Express it in nM; write the number only.

# Kd (binder: GGGUCUCGUAUUGCAGAAAUAAAUCAAGCGAGAC (structured_RNA) [17c D4a truncation 3] ) is 1500
